# System: LoVo (CCL-229) human colorectal cancer cells
# TEST PROTOCOL: Tumor cell anti-proliferation assay (CTG assay)
# Format: cell-based
# MEASUREMENT CONTEXT: 96 h incubation, CellTiter-Glo, IC50 (Y=50%)
Flag rule - IC50 less than 600 nM flags y; the remaining entries get n.

In plain terms, does Cc1noc(C)c1-c1cc(Nc2ccn[nH]2)nc(N2CCOC[C@H]2C)c1 [Compound 22] come in under 600 nM for IC50?
y

A record lists Cc1cc(Nc2nc(N3CCOC[C@H]3C)cc(C(C)(C)S(C)(=O)=O)n2)[nH]n1 [Compound 8] . Is its IC50 below 600 nM?
y

Hello, I'm reviewing records and need to know if IC50 of C[C@@H]1COCCN1c1cc(C(C)(C)C#N)cc(Nc2ccn[nH]2)n1 [Compound 24] is below 600 nM. Could you check?
y

Please check: IC50 for C[C@@H]1COCCN1c1cc(C2(S(C)(=O)=O)CC2)nc(Nc2ccn[nH]2)n1 [Compound 5] , strictly under 600 nM or not?
n

Is the reported IC50 for C[C@@H]1COCCN1c1cc(C2(S(C)(=O)=O)CCOCC2)cc(Nc2ccn[nH]2)n1 [Compound 45] strictly below 600 nM?
n

Say whether its IC50 is strictly beneath 600 nM. Entry: C[C@@H]1COCCN1c1cc(C(C)(C)S(C)(=O)=O)cc(Nc2ccn[nH]2)n1 [Compound 26]
y

====

# Tested on: LoVo (CCL-229) human colorectal cancer cells
# TEST PROTOCOL: Tumor cell anti-proliferation assay (CTG assay)
# Assay type: cell-based
# MEASUREMENT CONTEXT: 96 h incubation, CellTiter-Glo, IC50 (Y=50%)
Mark t for IC50 under 0.4 µM, f if at or over.

Reference set (6 entries):
| CHEMICAL STRUCTURE | EXPERIMENTAL SYSTEM | CLASSIFICATION |
| --- | --- | --- |
| Cc1cc(Nc2nc(N3CCOC[C@H]3C)cc(C(C)(C)C#N)n2)[nH]n1 | LoVo (CCL-229) human colorectal cancer cells | t |
| C[C@@H]1COCCN1c1cc(N(C)S(C)(=O)=O)cc(Nc2ccn[nH]2)n1 | LoVo (CCL-229) human colorectal cancer cells | f |
| C[C@@H]1COCCN1c1cc(C2(C#N)CCCC2)cc(Nc2ccn[nH]2)n1 | LoVo (CCL-229) human colorectal cancer cells | f |
| C[C@@H]1COCCN1c1cc(C2(S(C)(=O)=O)CC2)c(F)c(Nc2ccn[nH]2)n1 | LoVo (CCL-229) human colorectal cancer cells | f |
| Cc1cc(Nc2nc(N3CCOC[C@H]3C)cc(C3(C#N)CC3)n2)[nH]n1 | LoVo (CCL-229) human colorectal cancer cells | f |
| Cc1cc(Nc2cc(C3(C#N)CC3)cc(N3CCOC[C@H]3C)n2)[nH]n1 | LoVo (CCL-229) human colorectal cancer cells | f |

Does the reported IC50 of Cc1cc(Nc2cc(C3(S(C)(=O)=O)CCOCC3)cc(N3CCOC[C@H]3C)n2)[nH]n1 stay below 0.4 µM?
f

Please state whether IC50 is below 0.4 µM for Cc1cnn(C)c1-c1cc(Nc2ccn[nH]2)nc(N2CCOC[C@H]2C)c1
t

Please check: IC50 for Cc1cc(Nc2cc(C(C)(C)S(C)(=O)=O)cc(N3CCOC[C@H]3C)n2)[nH]n1 , strictly under 0.4 µM or not?
f

====

Entries below carry reported IC50 on ATR kinase (Homo sapiens, UniProt Q13535).
Sequence (Q13535 whole entry): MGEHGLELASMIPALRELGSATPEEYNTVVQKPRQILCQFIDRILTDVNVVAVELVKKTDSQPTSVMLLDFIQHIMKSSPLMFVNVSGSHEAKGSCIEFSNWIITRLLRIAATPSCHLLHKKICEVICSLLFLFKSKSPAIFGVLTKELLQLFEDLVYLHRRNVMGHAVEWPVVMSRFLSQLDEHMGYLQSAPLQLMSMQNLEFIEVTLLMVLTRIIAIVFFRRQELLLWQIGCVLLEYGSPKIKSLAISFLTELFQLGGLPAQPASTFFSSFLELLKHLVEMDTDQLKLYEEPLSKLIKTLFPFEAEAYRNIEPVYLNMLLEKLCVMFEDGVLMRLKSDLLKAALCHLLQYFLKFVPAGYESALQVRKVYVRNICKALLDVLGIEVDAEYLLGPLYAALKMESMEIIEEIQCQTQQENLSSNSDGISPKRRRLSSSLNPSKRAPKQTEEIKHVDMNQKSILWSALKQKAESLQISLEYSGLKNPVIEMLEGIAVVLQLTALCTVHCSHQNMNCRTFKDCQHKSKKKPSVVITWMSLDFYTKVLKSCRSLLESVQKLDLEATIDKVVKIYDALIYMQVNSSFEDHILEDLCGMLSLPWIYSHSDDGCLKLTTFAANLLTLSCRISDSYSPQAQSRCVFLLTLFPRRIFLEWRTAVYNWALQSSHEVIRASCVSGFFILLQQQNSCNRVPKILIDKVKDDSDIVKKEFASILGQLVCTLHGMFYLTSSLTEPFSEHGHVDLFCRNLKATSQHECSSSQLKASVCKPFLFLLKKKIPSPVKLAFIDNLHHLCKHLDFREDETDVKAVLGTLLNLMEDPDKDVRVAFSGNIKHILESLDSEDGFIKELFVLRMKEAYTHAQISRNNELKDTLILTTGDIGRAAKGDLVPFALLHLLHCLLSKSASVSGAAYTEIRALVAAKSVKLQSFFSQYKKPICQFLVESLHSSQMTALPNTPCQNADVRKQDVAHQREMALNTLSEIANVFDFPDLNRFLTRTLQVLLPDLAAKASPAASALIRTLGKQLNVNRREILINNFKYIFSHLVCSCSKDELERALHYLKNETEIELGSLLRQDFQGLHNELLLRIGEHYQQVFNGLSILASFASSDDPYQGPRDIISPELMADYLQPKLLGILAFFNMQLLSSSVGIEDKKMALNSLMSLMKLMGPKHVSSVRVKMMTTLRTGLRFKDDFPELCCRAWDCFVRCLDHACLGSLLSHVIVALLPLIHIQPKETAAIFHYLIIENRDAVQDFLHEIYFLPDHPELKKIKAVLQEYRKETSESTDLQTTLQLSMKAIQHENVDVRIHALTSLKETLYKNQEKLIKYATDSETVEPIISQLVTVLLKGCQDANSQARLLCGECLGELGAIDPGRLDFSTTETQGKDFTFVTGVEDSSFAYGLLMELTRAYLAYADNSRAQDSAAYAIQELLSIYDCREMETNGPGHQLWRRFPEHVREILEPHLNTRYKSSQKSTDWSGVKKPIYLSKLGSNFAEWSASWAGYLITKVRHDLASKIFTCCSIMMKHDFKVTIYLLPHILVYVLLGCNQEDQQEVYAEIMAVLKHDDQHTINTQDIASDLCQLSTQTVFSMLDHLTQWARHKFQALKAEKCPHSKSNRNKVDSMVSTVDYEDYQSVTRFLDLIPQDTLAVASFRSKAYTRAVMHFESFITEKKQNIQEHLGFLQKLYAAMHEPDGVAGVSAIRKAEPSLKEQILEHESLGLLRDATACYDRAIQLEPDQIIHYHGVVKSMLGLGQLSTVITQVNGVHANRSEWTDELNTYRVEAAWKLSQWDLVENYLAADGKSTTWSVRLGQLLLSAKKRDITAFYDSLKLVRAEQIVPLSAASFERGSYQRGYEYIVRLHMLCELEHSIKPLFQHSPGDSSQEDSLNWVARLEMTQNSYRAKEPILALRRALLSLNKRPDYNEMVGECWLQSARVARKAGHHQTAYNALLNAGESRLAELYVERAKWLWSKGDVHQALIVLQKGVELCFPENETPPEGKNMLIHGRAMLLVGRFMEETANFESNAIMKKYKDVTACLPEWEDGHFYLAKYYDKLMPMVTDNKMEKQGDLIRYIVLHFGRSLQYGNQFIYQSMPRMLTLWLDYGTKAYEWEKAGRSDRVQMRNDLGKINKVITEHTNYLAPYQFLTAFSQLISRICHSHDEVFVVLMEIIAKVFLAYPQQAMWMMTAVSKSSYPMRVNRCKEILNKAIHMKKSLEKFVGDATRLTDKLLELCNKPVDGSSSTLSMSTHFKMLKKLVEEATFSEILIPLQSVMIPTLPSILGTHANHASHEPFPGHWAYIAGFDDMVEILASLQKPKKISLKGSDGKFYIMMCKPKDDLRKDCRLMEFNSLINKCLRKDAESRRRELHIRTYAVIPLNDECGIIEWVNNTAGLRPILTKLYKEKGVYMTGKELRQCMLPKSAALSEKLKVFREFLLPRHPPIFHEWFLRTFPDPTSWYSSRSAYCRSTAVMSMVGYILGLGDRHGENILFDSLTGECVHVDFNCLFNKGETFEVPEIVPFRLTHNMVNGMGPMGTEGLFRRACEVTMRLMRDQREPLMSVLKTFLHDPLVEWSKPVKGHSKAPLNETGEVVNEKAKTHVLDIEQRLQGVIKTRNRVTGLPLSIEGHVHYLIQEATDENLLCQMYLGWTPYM
Sequence (Q8WXE1 whole entry partner): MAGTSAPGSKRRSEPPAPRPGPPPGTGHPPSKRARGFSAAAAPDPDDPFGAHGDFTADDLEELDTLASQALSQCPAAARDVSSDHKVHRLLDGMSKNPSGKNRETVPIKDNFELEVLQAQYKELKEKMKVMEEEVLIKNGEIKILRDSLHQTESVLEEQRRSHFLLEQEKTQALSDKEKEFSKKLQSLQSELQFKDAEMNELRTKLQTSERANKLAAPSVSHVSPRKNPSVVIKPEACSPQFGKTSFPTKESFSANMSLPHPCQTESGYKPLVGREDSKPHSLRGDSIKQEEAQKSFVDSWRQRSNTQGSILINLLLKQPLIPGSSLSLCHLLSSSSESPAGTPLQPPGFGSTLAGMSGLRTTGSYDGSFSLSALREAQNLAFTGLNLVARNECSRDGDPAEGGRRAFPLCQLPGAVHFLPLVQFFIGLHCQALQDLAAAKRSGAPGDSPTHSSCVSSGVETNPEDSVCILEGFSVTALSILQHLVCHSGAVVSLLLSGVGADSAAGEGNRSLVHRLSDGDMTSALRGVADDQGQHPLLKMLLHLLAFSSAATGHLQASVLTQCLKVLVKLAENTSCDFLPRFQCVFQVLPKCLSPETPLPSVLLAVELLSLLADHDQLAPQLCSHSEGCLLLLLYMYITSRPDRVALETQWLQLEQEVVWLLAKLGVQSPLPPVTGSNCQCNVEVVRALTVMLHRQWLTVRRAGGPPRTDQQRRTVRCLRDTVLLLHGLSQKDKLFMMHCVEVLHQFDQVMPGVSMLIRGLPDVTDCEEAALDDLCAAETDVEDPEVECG
One number for each entry, in nM.

Some entries whose results are on file:
| CHEMICAL STRUCTURE | EXPERIMENTAL SYSTEM | UOM | NUMERIC VALUE |
| --- | --- | --- | --- |
| Cc1cc(Nc2nc(N3CCOC[C@H]3C)cc(C(C)(C)C#N)n2)[nH]n1 | ATR kinase (Homo sapiens, UniProt Q13535) | nM | 10 |
| C[C@@H]1COCCN1c1cc(C2(C#N)CCCCC2)nc(Nc2ccn[nH]2)n1 | ATR kinase (Homo sapiens, UniProt Q13535) | nM | 2.5 |
| Cc1cc(Nc2cc(C3(S(C)(=O)=O)CC3)cc(N3CCOC[C@H]3C)n2)[nH]n1 | ATR kinase (Homo sapiens, UniProt Q13535) | nM | 10.3 |
| C[C@@H]1COCCN1c1cc(C(C)(C)S(C)(=O)=O)nc(Nc2ccn[nH]2)n1 | ATR kinase (Homo sapiens, UniProt Q13535) | nM | 28 |

Please turn your attention to the following entry.
Recorded IC50 for C[C@@H]1COCCN1c1cc(C(C)(C)C#N)nc(Nc2ccn[nH]2)n1 , please?
30.4

====

# Tested on: LoVo (CCL-229) human colorectal cancer cells
# TEST PROTOCOL: Tumor cell anti-proliferation assay (CTG assay)
# Type: cell-based
# MEASUREMENT CONTEXT: 96 h incubation, CellTiter-Glo, IC50 (Y=50%)
Threshold check on IC50: strictly below 500 nM is class 1; on or above 500 nM is class 0.

| CHEMICAL STRUCTURE | CLASSIFICATION |
| --- | --- |
| C[C@@H]1COCCN1c1cc(C(C)(C)C#N)nc(Nc2ccn[nH]2)n1 | class 1 |
| Cc1cc(Nc2cc(-c3c(C)noc3C)cc(N3CCOC[C@H]3C)n2)[nH]n1 | class 1 |
| Cc1cc(Nc2nc(N3CCOC[C@H]3C)cc(C3(S(C)(=O)=O)CC3)n2)[nH]n1 | class 1 |
| Cc1cc(Nc2cc(-c3c(C)cnn3C)cc(N3CCOC[C@H]3C)n2)[nH]n1 | class 1 |
| C[C@@H]1COCCN1c1cc(C2(O)CCCCC2)cc(Nc2ccn[nH]2)n1 | class 0 |

Say whether its IC50 is strictly beneath 500 nM. Entry: Cc1cc(Nc2cc(-c3c(C)nnn3C)cc(N3CCOC[C@H]3C)n2)[nH]n1
class 1

# check: IC50 < 500 nM for Cc1cc(Nc2cc(C(C)(C)C#N)cc(N3CCOC[C@H]3C)n2)[nH]n1
class 1

# check: IC50 < 500 nM for Cc1cnn(C)c1-c1cc(N2CCOC[C@H]2C)nc(Nc2ccn[nH]2)c1F
class 0

Consider the molecule C[C@@H]1COCCN1c1cc(C2(S(C)(=O)=O)CCOCC2)nc(Nc2ccn[nH]2)n1 . Is its IC50 strictly less than 500 nM?
class 0

Threshold test, IC50 < 500 nM: C[C@@H]1COCCN1c1cc(C2(C#N)CCOCC2)nc(Nc2ccn[nH]2)n1
class 0

====

# System: LoVo (CCL-229) human colorectal cancer cells
# TEST PROTOCOL: Tumor cell anti-proliferation assay (CTG assay)
# Format: cell-based
# MEASUREMENT CONTEXT: 96 h incubation, CellTiter-Glo, IC50 (Y=50%)
# Experimental: Assay 2: Tumor Cell Anti-proliferation Assay (CTG Assay) Human colorectal cancer cells HT-29 (HTB-38) and LoVo (CCL-229) were selected for the CTG assay, the two cell lines were originally obtained from the American Type Culture Collection (ATCC). […] IC50 and GI50 values were calculated with XLFit curve fitting software using 4 Parameter Logistic Model Y=Bottom + (Top-Bottom)/(1+(IC50/X)^HillSlope). […]
I'd be grateful if you could share measured IC50 for these entries.
Give bare numbers, in nM.

Solved cases below.
| CHEMICAL STRUCTURE | UOM | IC50 |
| --- | --- | --- |
| C[C@@H]1COCCN1c1cc(C2(C#N)CCCCC2)cc(Nc2ccn[nH]2)n1 | nM | 492 |
| C[C@@H]1COCCN1c1cc(C2(C#N)CCCC2)nc(Nc2ccn[nH]2)n1 | nM | 698 |
| Cc1cc(Nc2cc(C3(S(C)(=O)=O)CC3)cc(N3CCOC[C@H]3C)n2)[nH]n1 | nM | 225 |
| Cc1cnn(C)c1-c1cc(N2CCOC[C@H]2C)nc(Nc2ccn[nH]2)c1CO | nM | 515 |
| C[C@@H]1COCCN1c1cc(C2(C#N)CCOCC2)cc(Nc2ccn[nH]2)n1 | nM | 844 |
| C[C@@H]1COCCN1c1cc(C2(C#N)CCCCC2)nc(Nc2ccn[nH]2)n1 | nM | 370 |
| C[C@@H]1COCCN1c1cc(C2(S(C)(=O)=O)CC2)cc(Nc2ccn[nH]2)n1 | nM | 334 |

Return reported IC50; argument: C[C@@H]1COCCN1c1cc(C(C)(C)S(C)(=O)=O)nc(Nc2ccn[nH]2)n1
872

Measured values drawn from patent US20230339927A1 for this set.
